# Read-out: Epidermal growth factor receptor (EGFR), EGFR (gene 1956)
# assay procedure: BSK_hDFCGF_EGFR: BioMAP Diversity Plus: hDFCGF Assay for Epidermal growth factor receptor (EGFR) Biomarker Activity (AID 2283057)
# test settings: primary human foreskin fibroblasts; actives raise or lower the signal
Active and inactive are the calls of the source. The calls were made as follows: active = hit-call score of the fitted dose curve at least 0.9, where 1 is the maximum; inactive = score below 0.9.
Can you answer with just one of these options? active, inactive

Q: Hey, what did the test say about Cc1cc(CCC(=O)OCCOCCOCCOC(=O)CCc2cc(C)c(O)c(C(C)(C)C)c2)cc(C(C)(C)C)c1O ?
A: inactive

Q: What would you report for CS(=O)(=O)OCCCCOS(C)(=O)=O ?
A: inactive

====

# Read-out: Tissue plasminogen activator (tPA), PLAT (gene 5327)
# assay procedure: BSK_BE3C_tPA: BioMAP Diversity Plus: BE3C Assay for Tissue plasminogen activator (tPA) Biomarker Activity (AID 2283041)
# test settings: primary human bronchial epithelial cells; actives raise or lower the signal
Active and inactive are the calls of the source. How the source made its calls: active means hit-call score of the fitted dose curve at least 0.9, where 1 is the maximum; inactive means score below 0.9.
Can you answer with just one of these options? active, inactive

Q: Hey, what did the test say about CCC(C)c1cc([N+](=O)[O-])cc([N+](=O)[O-])c1OC(=O)OC(C)C (stereo not given) ?
A: active

Q: What would you report for IC(I)I ?
A: inactive

Q: What would you report for O=C1OC[C@H](Cc2cccc(O)c2)[C@H]1Cc1cccc(O)c1 ?
A: inactive

Q: What would you report for C=C(C)C(=O)OCCOCCOCCOC(=O)C(=C)C ?
A: inactive

Q: What would you report for COc1cc(Cl)c(OC)cc1N ?
A: inactive

====

# Test system: Sodium/Iodide Symporter (NIS), SLC5A5 (gene 6528)
# assay procedure: CPHEA_Stoker_NIS_Inhibition_RAIU: CPHEA's Radioactive Iodide Uptake (RAIU) Assay for Sodium/Iodide Symporter (NIS) Inhibition, Stoker and Laws Labs (AID 2283841)
Records with an inconclusive call do not appear. Calls of active or inactive are those of the source. Rule for the calls: active = hit-call score of the fitted dose curve at least 0.9, where 1 is the maximum; inconclusive = response in the unintended direction; inactive = score below 0.9.
Can you answer with just one of these options? True (active), False (inactive)

compound | assigned category
OC[C@H]1O[C@@H]2O[C@H]3[C@H](O)[C@@H](O)[C@@H](O[C@H]4[C@H](O)[C@@H](O)[C@@H](O[C@H]5[C@H](O)[C@@H](O)[C@@H](O[C@H]6[C@H](O)[C@@H](O)[C@@H](O[C@H]7[C@H](O)[C@@H](O)[C@@H](O[C@H]8[C@H](O)[C@@H](O)[C@@H](O[C@H]9[C@H](O)[C@@H](O)[C@@H](O[C@H]1[C@H](O)[C@H]2O)O[C@@H]9CO)O[C@@H]8CO)O[C@@H]7CO)O[C@@H]6CO)O[C@@H]5CO)O[C@@H]4CO)O[C@@H]3CO | False
CCCCCCCCc1ccc(S(=O)(=O)O)cc1 | False

Q: Hey, what did the test say about CC(CN=Cc1ccccc1O)N=Cc1ccccc1O (stereo unspecified) ?
A: False

Q: What would you report for CCCCCCCCCCCCCCN(CCO)CCO ?
A: False

====

# Read-out: TIMP metallopeptidase inhibitor 1 (TIMP1), TIMP1 (gene 7076)
# assay procedure: BSK_MyoF_TIMP1: BioMAP Diversity Plus: MyoF Assay for TIMP metallopeptidase inhibitor 1 (TIMP1) Biomarker Activity (AID 2284269)
# test settings: primary human lung fibroblasts
# Protocol: BSK_MyoF is a cell-based, multiplexed-readout assay that uses lung fibroblasts, […], with measurements taken at 24 hours after chemical dosing in a microplate: 96-well plate.BSK_MyoF_TIMP1 is an assay component measured in the BSK_MyoF assay. […] The levels of cell surface (or secreted, indicated by the prefix "s") biomarker endpoints were measured by ELISA. […] Plates were read after 6 h.
Active and inactive are the calls of the source. How the source made its calls: active means hit-call score of the fitted dose curve at least 0.9, where 1 is the maximum; inactive means score below 0.9.
Can you answer with just one of these options? yes (1) = active, no (0) = inactive

compound | assigned category
C=C(C)C(=O)OCC(CC)(COC(=O)C(=C)C)COC(=O)C(=C)C | yes (1)
O=C1OC2(c3ccccc31)c1ccc(O)c(Br)c1Oc1c2ccc(O)c1Br | no (0)
CN(C)C(=O)Nc1ccc(Oc2ccc(Cl)cc2)cc1 | no (0)
CCC(C)c1cc([N+](=O)[O-])cc([N+](=O)[O-])c1OC(=O)OC(C)C (stereo not drawn) | yes (1)
c1ccc(Oc2ccccc2)cc1 | no (0)

Q: Hey, what did the test say about c1ccc2cc(Nc3ccc(Nc4ccc5ccccc5c4)cc3)ccc2c1 ?
A: no (0)

Q: What would you report for C=C(C)C(=O)OCCOCCOCCOC(=O)C(=C)C ?
A: no (0)

====

# Read-out: Interleukin 6 (IL6), IL6 (gene 3569)
# assay procedure: BSK_BT_xIL6: BioMAP Diversity Plus: BT Assay for Interleukin 6 (IL6) Biomarker Activity (AID 2284228)
# test settings: primary human B cells with PBMC
Activity calls are given as the source filed them. The calls were made as follows: active = hit-call score of the fitted dose curve at least 0.9, where 1 is the maximum; inactive = score below 0.9.
Can you answer with just one of these options? t (active), f (inactive)

These recorded examples may help you get a feel for the data.
molecule | assigned category
CC(=O)c1c(C)c([N+](=O)[O-])c(C(C)(C)C)c([N+](=O)[O-])c1C | f
Cc1cc(CCC(=O)OCCOCCOCCOC(=O)CCc2cc(C)c(O)c(C(C)(C)C)c2)cc(C(C)(C)C)c1O | f
c1ccc(Oc2ccccc2)cc1 | f
CCN(CC)C(=O)N(CC)CC | f
C[C@@H]1CCN(C(=O)[C@H](CCCN=C(N)N)NS(=O)(=O)c2cccc3c2NC[C@H](C)C3)[C@@H](C(=O)O)C1 | f
CCCCOC(=O)CCCCCCCC(=O)OCCCC | f

Q: Hey, what did the test say about O=C1OC2(c3ccccc31)c1ccc(O)c(Br)c1Oc1c2ccc(O)c1Br ?
A: f

Q: What would you report for COc1cc(Cl)c(OC)cc1N ?
A: f

Q: What would you report for CC(=O)C1(C)CC2=C(CCCC2(C)C)CC1C (centres undefined) ?
A: t

====

# System: SERPINA7 (gene 6906)
# assay procedure: CCTE_GLTED_hTBG: CCTE's human Thyroxine-binding Globulin (TBG) Inhibition Assay, Great Lakes Toxicology and Ecology Division (GLTED) Lab (AID 2284343);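 also: active chemicals lower fluorescence versus DMSO baseline by displacing probe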
Active and inactive are the calls of the source. The calls were made as follows: active = hit-call score of the fitted dose curve at least 0.9, where 1 is the maximum; inconclusive = response in the unintended direction; inactive = score below 0.9.
Can you answer with just one of these options? active, inactive

compound | assigned category
O=C(c1ccccc1)C(O)c1ccccc1 (stereo unspecified) | active
N[C@@H](Cc1cc(I)c(Oc2cc(I)c(O)c(I)c2)c(I)c1)C(=O)O | active
CC(C)CCCCCCCCCCCCCCC(=O)O | active
C=C[Si]1(C)O[Si](C)(C=C)O[Si](C)(C=C)O[Si](C)(C=C)O1 (stereo unspecified) | inactive
Oc1ccc2cc(SSc3ccc4cc(O)ccc4c3)ccc2c1 | active

Q: Hey, what did the test say about CCCCC(CC)COC(=O)c1ccc(O)cc1 (stereo unspecified) ?
A: active

Q: What would you report for COc1ccc(N=Nc2cc(C)c(N=Nc3ccc(S(=O)(=O)O)cc3)cc2OC)cc1 ?
A: active

Q: What would you report for CCCCCCC(CO)CCCC (stereo unspecified) ?
A: active

Q: What would you report for OCc1cccc(Oc2ccccc2)c1 ?
A: active

Q: What would you report for BrCc1cccc(Oc2ccccc2)c1 ?
A: active

Q: What would you report for Clc1ccc(C(c2ccccc2Cl)C(Cl)Cl)cc1 (stereo unspecified) ?
A: active

====

# assay procedure: CCTE_Shafer_MEA_acute_firing_rate_mean: CCTE's Neural Acute Assay for Mean Firing Rate, Shafer Lab (AID 2284009);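 also: analyzed for loss of signal so actives lower firing rate relative to DMSO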
The source made the active and inactive calls. How the source made its calls: active means hit-call score of the fitted dose curve at least 0.9, where 1 is the maximum; inactive means score below 0.9.
Can you answer with just one of these options? active, inactive

These recorded examples may help you get a feel for the data.
compound | assigned category
O=CN1CCOCC1 | inactive
CCOC(=O)C(C#N)=C(c1ccccc1)c1ccccc1 | inactive
C=CC(C)(O)CCC=C(C)C (stereo unspecified) | inactive

Q: Hey, what did the test say about Oc1c(Cl)cc(Cl)c(Cl)c1Cc1c(O)c(Cl)cc(Cl)c1Cl ?
A: active

Q: What would you report for CC1(C)CCC[C@]2(C)[C@H]3CCO[C@]3(C)CC[C@@H]12 ?
A: inactive

Q: What would you report for CC(CN=Cc1ccccc1O)N=Cc1ccccc1O (stereo unspecified) ?
A: inactive

====

# assay procedure: TOX21_TR_RXR_BLA_Agonist_Followup_viability: Viability Assessment in the Tox21 Thyroid Hormone Receptor beta Retinoid X Receptor alpha (RXRa) Agonism Beta-lactamase (BLA) Follow-Up Assay (AID 2283970)
Inconclusive results are not listed. The source made the active and inactive calls. How the source made its calls: active means hit-call score of the fitted dose curve at least 0.9, where 1 is the maximum; inconclusive means response in the unintended direction; inactive means score below 0.9.
Can you answer with just one of these options? active, inactive

Q: Hey, what did the test say about CC(=O)Nc1ccc(C(=O)CCl)cc1 ?
A: active

Q: What would you report for O=Cc1ccccc1S(=O)(=O)O ?
A: inactive

Q: What would you report for Cc1cc(C)nc(NS(=O)(=O)c2ccc(N)cc2)n1 ?
A: inactive

Q: What would you report for N[C@@H](Cc1cc(I)c(Oc2cc(I)c(O)c(I)c2)c(I)c1)C(=O)O ?
A: inactive

Q: What would you report for C[C@H](CCC(=O)NCC(=O)O)[C@H]1CC[C@H]2[C@@H]3[C@H](O)C[C@@H]4C[C@H](O)CC[C@]4(C)[C@H]3C[C@H](O)[C@]12C ?
A: inactive

The values you see were collected from PubChem BioAssay (EPA / NIEHS).
